Taken from a melting point compilation (Tetko et al.; mined from patent text by program, amines drawn as free bases though some values may be those of a salt).

Let's look at some compounds and their measured melting point.

compound=CC(C)c1cc(O)n[nH]1 experimental_readout="melting point" result="189 to 193 °C"
compound=COC(=O)c1cc(I)c[nH]1 experimental_readout="melting point" result="77 to 78 °C"
compound="O=C1NC(=O)C(Cc2ccc(OCCON=Cc3ccccn3)cc2)S1 (stereo unspecified)" experimental_readout="melting point" result="161 to 163 °C"
compound=CCOC(=O)/C=C/c1cc(-c2c(CC(=O)Nc3ccc(Cl)cc3C(F)(F)F)c(=O)oc3cc(Cl)c(C)cc23)ccc1F experimental_readout="melting point" result="160 to 162 °C"

Q) Annotate the compound COc1ccc2oc(C(=O)Nc3ccc(-c4ccc(S(=O)(=O)NC(C(=O)O)C(C)C)cc4)cc3)cc2c1 (stereo unspecified) with its measured melting point.
A) 257 to 259 °C

Q) Answer with the recorded melting point for the compound listed here: CCCCc1nc2c(N)nc3ccc(OCC(=O)N4CCOCC4)cc3c2n1C
A) 257 °C

Q) Give the value of melting point reported for the following: O=C(O)Cc1ccccc1Oc1cccc(F)c1
A) 81 to 84 °C

Q) Read off the recorded melting point for CC(=O)c1ccc(-c2cccnc2)s1
A) 104 to 105 °C

Q) Report measured melting point; entry is CSc1ccc(-c2cc(-n3ccc(C(F)(F)F)n3)c3ccccc3n2)cc1
A) 116 to 118 °C

Q) Supply reported melting point belonging to this compound: O=C(NNc1ccc(NC(=S)Nc2ccccc2)cc1)C(F)(F)F
A) 172 to 174 °C

* * *

Below, each entry is listed with its recorded melting point.

Reference set (8 entries):
molecule=Cc1ccc(OCCCN2CCN(c3nc(N)nc(-c4cc(Cl)ccc4Cl)n3)CC2)cc1 result="148 to 150 °C"
molecule="CC(C)(C)C(CO)NC(=O)C(CC(=O)O)n1ccc(-c2ccc(-c3ccc(C(N)=O)cc3)cc2)c1 (stereo not drawn)" result="192 to 194 °C"
molecule="CCCOC1(C=O)C=CCC(OC)(N2CCC(c3noc4cc(F)ccc34)CC2)C1O (stereo not drawn)" result="107 to 108 °C"
molecule=CCOC(=O)c1ccc(-c2nnc(-c3ccccc3N)o2)cc1 result="174 to 175 °C"
molecule=CC(O)=C(C#N)CC(=O)Nc1ccc(OCCCI)cc1 result="149 °C"
molecule=CC(C)(C)NCP(=O)(O)O result="295 °C"
molecule="Cc1cc(NC(=O)c2ccn3c2CSC3c2cccnc2)c2ccccc2c1 (stereo not drawn)" result="172 °C"
molecule="COC1C(OC(=O)N2CCOCC2)CCC2(CO2)C1C1(C)OC1CCC(C)C (stereo not drawn)" result="64 to 65 °C"

Now look at this entry.
Q) Return the recorded melting point value; entry: CCCC(=O)Nc1n[nH]c2cc(-c3cccnc3)ccc12
A) 205 °C

* * *

Listed compounds paired with reported melting point

In the examples that follow, each entry is paired with its recorded melting point.
compound=N=C(N)NCCCOc1ccc2cc(CC(=O)O)c(=O)n(Cc3ccccc3)c2c1 experimental_readout="melting point" result="132 to 134 °C"
compound="CC1=NN(C(=O)NS(=O)(=O)c2ncccc2C(F)(F)F)C(c2ccccc2)C1 (centres undefined)" experimental_readout="melting point" result="185 to 187 °C"
compound=O=C(Nc1cccnn1)N1CCN(c2nccc(-c3ccc(F)cc3)n2)CC1 experimental_readout="melting point" result="168 to 169 °C"

Q) Return reported melting point. Input compound: COC(=O)c1ccc(Cc2cn(C(C)C)c3ccc(C=C(C)C(=O)O)cc23)c(OC)c1
A) 143 to 145 °C

* * *

melting point by entry:

molecule_smiles=Oc1ccccc1C=NNc1nc(C(Cl)(Cl)Cl)ns1 result="204 to 205 °C"
molecule_smiles=Clc1nc(NCCCCC=C(c2ccccc2)c2ccccc2)c2nc[nH]c2n1 result="206 to 207 °C"
molecule_smiles=CC(=O)c1ccc(OCCCOc2cc(N)c(C)cc2Br)c(CCC(F)(F)F)c1O result="124 to 126 °C"

Q) Tell me its melting point given COc1cc(Nc2c(C#N)cnc3cc(C#C[Si](C)(C)C)sc23)c(Cl)cc1Cl as the entry.
A) 169 to 171 °C

* * *

EXPERIMENTAL_READOUT: melting point

compound=CCOC(=O)c1ccc(SC)cc1C(=O)OCC experimental_readout="melting point" result="178 to 181 °C"

Q) Give a short answer stating reported melting point for CCOC(=O)c1c(C(F)(F)F)[nH]cc(-c2cc(OC(C)C)c(Cl)cc2F)c1=O .
A) 118 to 119 °C

Q) Tell me its melting point given C=Cc1ccnc(-c2cc(C)ccn2)c1 as the entry.
A) 82 to 86 °C

Q) Please look at this compound and report its melting point: CCOC(=O)c1cc2c(OCC3CO3)cc(C)cc2[nH]1 (stereo unspecified)
A) 173 to 175 °C

Q) // fetch melting point given entry Cc1cccc(CCCCCCCCC(=O)O)c1
A) 39 to 40 °C

Q) Dear colleague, please send me the reported melting point for c1ccc(-c2cnc3nncn3c2)cc1 when you can.
A) 231 °C

* * *

Parameter melting point: see the listing below.

Examples from the recorded data:
molecule_smiles=Cc1ccc(C(O)(Cc2nnnn2C)c2ccc(C)cc2F)c(F)c1 result="150 to 151 °C"
molecule_smiles=O=C1NCN(c2ccccc2)C12CCN(C1CCC(c3ccc(F)cc3)(c3ccc(F)cc3)CC1)CC2 result="249 to 253 °C"

Now take the following molecule into account.
Q) Please give the documented melting point of COC(=O)C(=O)NC(=O)N1CCCCC1
A) 92 to 93 °C

* * *

EXPERIMENTAL_READOUT: melting point

Examples from the recorded data:
molecule=O=C1NCCc2[nH]c3c(F)cccc3c21 result="255 to 257 °C"
molecule=O=C(O)C=CC(=O)Nc1ccc2ncnc(Nc3cccc(Br)c3)c2c1 result="224 to 225 °C"
molecule="C=CC(=O)[C@@H]1CCCC[C@H]1C(=O)O (relative stereo)" result="101 to 102 °C"
molecule="Cc1ccccc1C(=O)NC(n1cncn1)C(Cl)(Cl)CCl (centres undefined)" result="133 to 137 °C"

Q) Specify melting point for COc1cccc(C2(COc3cccc4cc(NS(=O)(=O)C(F)(F)F)ccc34)N=CNO2)c1 (centres undefined) and stop.
A) 138 to 140 °C

Q) Please give measured melting point of the following entry: CCCOc1ccc(S(=O)(=O)N2CCN(C)CC2)cc1-c1nc2cc(N)c([N+](=O)[O-])cc2c(=O)[nH]1
A) 270 to 271 °C

Q) State its melting point for this molecule: N=C(O)c1cc(C(O)=NCCS)c(C(=O)O)cc1C(=O)O
A) 300 °C

Q) Consider the molecule COc1ccc(CCNC(=O)CNc2cc(Cl)ccc2C(N)=O)cc1OC . State its measured melting point.
A) 168 °C

Q) Look up and report measured melting point for this entry: O=C(NCCCn1ccnc1)c1ccco1
A) 111 to 113 °C

* * *

EXPERIMENTAL_READOUT: melting point

As a guide, the following entries are already answered.
compound="COC(=O)C1=C(C)NC(C)=C(C(=O)OCCCOc2ccc(CCO)cc2)C1c1cccc([N+](=O)[O-])c1 (stereo unspecified)" experimental_readout="melting point" result="< 50 °C"
compound=CCOC(=O)C(=O)Nc1cc(C#N)c(C#N)cc1[N+](=O)[O-] experimental_readout="melting point" result="140 to 141 °C"
compound=COc1ccc(/C=C/C(=O)c2ccccc2C(=O)O)cc1-c1cccs1 experimental_readout="melting point" result="79 to 81 °C"
compound="O=S(CCCCCOc1ccc(C2=C(c3ccccc3)CCCc3cc(O)ccc32)cc1)CCCC(F)(F)F (stereo unspecified)" experimental_readout="melting point" result="145 °C"
compound=CCc1cc(C(=O)c2ccccc2Cl)c(-n2c(Cl)nnc2CNC(=O)c2cc3ccccc3[nH]2)s1 experimental_readout="melting point" result="254 to 256 °C"

Continue with the next compound.
Q) Read off the recorded melting point for COCCOc1cc(Cl)cnc1[N+](=O)[O-]
A) 71.5 to 72.5 °C

* * *

EXPERIMENTAL_READOUT: melting point

Some compounds with recorded melting point:
molecule_smiles=O=C1C(=Cc2c(Cl)cccc2Cl)CCc2ccccc21 experimental_readout="melting point" result="73.8 to 75.6 °C"
molecule_smiles=CC(C)(C)OC(=O)CCc1cccc(-c2nc(=O)c3ccc(C(F)(F)F)cc3s2)n1 experimental_readout="melting point" result="148 to 149 °C"

Would you kindly look at the next entry?
Q) Give a short answer stating reported melting point for Cc1nc2c(N)nc3ccc(OCc4ccccc4)cc3c2n1CCCCNC(=O)c1ccccc1 .
A) 244 to 245 °C

* * *

EXPERIMENTAL_READOUT: melting point

Previously resolved entries follow.
compound=COC1(c2cnc(OCc3ccc(/C(C)=N/O)cc3)s2)CCOCC1 result="107 to 109 °C"
compound=C=CCn1c(=O)c2[nH]c(/C=C/c3ccc(OC)c(OC)c3)nc2n(CC=C)c1=O result="252 °C"
compound="OC1CC2c3ccccc3CCN2C2CCCCC12 (stereo not drawn)" result="140 to 142 °C"
compound=Cc1csc2c1S(=O)(=O)N(C)C(C(=O)Nc1cccccc1=O)=C2O result="229 to 233 °C"
compound=CCOCc1nc2c(N)nc3ccccc3c2n1Cc1cc(-c2ccccc2)no1 result="215 to 216 °C"
compound=CC(C)n1cc(-c2nn(-c3cccc(C(F)(F)F)c3)ccc2=O)c(-c2ccccc2)n1 result="138 to 140 °C"
compound="C#CCN1C(=O)C2CC2(c2ccc(N)cc2)C1=O (stereo not drawn)" result="106 to 109 °C"

Next compound, melting point to be filled in.
Q) // fetch melting point given entry O=C1C2CC3CC1CC(OCc1ccc(-c4nc5ccccc5o4)cc1)(C3)C2
A) 159 to 160 °C
